- System under test: E. coli arabinose binding protein variant C64A/L253C, fluorophore conjugate (Escherichia coli, UniProt P02924, C87A/L276C)
- Construct: initiator methionine (N); Gly-Ser-Gly-(His)n or Gly-Ser-(His)n (n = 5, 6 or 10) (C); made in house; host or cells: E. coli BL21-DE3
- Sequence (P02924 24-329 C87A/L276C): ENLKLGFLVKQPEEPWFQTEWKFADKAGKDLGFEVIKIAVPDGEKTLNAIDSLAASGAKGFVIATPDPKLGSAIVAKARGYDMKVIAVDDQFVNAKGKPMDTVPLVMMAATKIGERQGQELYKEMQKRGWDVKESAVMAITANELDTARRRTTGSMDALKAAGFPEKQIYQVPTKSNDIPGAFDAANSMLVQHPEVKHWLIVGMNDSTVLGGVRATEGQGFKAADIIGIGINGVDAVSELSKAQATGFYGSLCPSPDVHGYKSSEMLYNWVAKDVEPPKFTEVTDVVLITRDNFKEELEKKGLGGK
- Test summary: Fluorimetric titration of fluorophore conjugates
- Assay conditions: L253C-acrylodan conjugate
- Source text: Molecular Cloning. […] Additionally the sequence of Fe(III) BP was mutated by substitution of Glu57 with Asp to raise the Kd to a concentration range conveniently measured using Fe(III) citrate. […] Fluorimetry. […] Fluorescence emission spectra were acquired with excitation and emission slit widths of 4 and 8 nm, respectively. […] Analyte affinity measurements. […] The emission wavelength monitored was that of maximum difference in intensity between the ligand-free and bound states. […]
Property name: Kd
Please answer in the form of a number followed by its unit of measurement.

The reported value for OC1OC[C@H](O)[C@H](O)[C@H]1O (stereo partly shown) [arabinose] in terms of Kd is 0.7 µM

---

- System under test: E. coli arabinose binding protein variant C64A/K301C, fluorophore conjugate (Escherichia coli, UniProt P02924, C87A/K324C)
- Construct: initiator methionine (N); Gly-Ser-Gly-(His)n or Gly-Ser-(His)n (n = 5, 6 or 10) (C); made in house; host or cells: E. coli BL21-DE3
- Sequence (P02924 24-329 C87A/K324C): as the sequence (P02924 24-329 C87A/L276C) above, with C253L, K301C counted along it
- Test summary: Fluorimetric titration of fluorophore conjugates
- Assay conditions: Acrylodan conjugate, allosteric site
Property name: Kd (nM)
Please reply with the bare figure in nM and do not write the unit itself.

The reported value for OC1OC[C@H](O)[C@H](O)[C@H]1O (stereo partly shown) [arabinose] in terms of Kd is 460

---

- System under test: E. coli dipeptide binding protein variant T44C, fluorophore conjugate (Escherichia coli, UniProt P23847, T72C)
- Construct: initiation methionine (N); Gly-Ser-Gly-(His)n or Gly-Ser-(His)n (C); made in house; host or cells: E. coli BL21-DE3
- Sequence (P23847 29-535 T72C): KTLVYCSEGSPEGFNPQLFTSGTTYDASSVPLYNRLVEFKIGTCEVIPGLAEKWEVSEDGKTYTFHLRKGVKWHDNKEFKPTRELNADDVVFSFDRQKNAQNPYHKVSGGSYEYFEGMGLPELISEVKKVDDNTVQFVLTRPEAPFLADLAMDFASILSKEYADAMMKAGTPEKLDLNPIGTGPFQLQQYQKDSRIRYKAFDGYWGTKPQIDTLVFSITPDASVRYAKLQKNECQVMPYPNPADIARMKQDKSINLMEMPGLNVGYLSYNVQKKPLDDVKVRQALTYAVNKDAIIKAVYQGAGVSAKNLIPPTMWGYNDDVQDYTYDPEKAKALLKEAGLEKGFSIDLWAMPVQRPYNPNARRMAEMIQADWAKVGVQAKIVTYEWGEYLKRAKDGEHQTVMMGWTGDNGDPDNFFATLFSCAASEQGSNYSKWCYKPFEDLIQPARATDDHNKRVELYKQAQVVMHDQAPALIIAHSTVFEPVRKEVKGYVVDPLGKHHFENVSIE
- Test summary: Fluorimetric titration of fluorophore conjugates
- Assay conditions: Fluorescein conjugate, peristeric site
Property name: pKd
Please note pKd is a logarithmic value: minus log10 of concentration in mol/L. Answer with that number alone.

The reported value for CC(C)C[C@H](NC(=O)CN)C(=O)O [Gly-Leu, Gly-Leu dipeptide] in terms of pKd is 6.19

---

- System under test: E. coli sulfate binding protein variant W290C, fluorophore conjugate (Escherichia coli, UniProt P0AG78, W309C)
- Construct: Gly-Ser-Gly-(His)n or Gly-Ser-(His)n, n=5, 6 or 10 (C); initiator methionine (N)
- Sequence (P0AG78 20-329 W309C): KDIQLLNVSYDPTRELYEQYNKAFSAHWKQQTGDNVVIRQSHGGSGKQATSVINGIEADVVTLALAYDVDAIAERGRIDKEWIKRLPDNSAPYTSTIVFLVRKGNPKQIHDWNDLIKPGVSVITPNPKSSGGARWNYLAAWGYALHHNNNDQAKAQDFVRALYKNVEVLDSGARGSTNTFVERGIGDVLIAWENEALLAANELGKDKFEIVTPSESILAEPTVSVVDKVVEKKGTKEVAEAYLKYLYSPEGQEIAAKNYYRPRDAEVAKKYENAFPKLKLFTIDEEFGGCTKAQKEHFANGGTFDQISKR
- Test summary: Fluorimetric titration of fluorophore conjugates
- Assay conditions: JPW4042 conjugate, ligand sulfate
Property name: pKd
Please note pKd is a logarithmic value: minus log10 of concentration in mol/L. Answer with that number alone.

The reported value for O=S(=O)(O)O [sulfate] in terms of pKd is 6.47

---

- System under test: E. coli dipeptide binding protein variant D450C, fluorophore conjugate (Escherichia coli, UniProt P23847, D478C)
- Construct: initiator methionine (N); Gly-Ser-Gly-(His)n or Gly-Ser-(His)n (n = 5, 6 or 10) (C); made in house; host or cells: E. coli BL21-DE3
- Sequence (P23847 29-535 D478C): as the sequence (P23847 29-535 T72C) above, with C44T, D450C counted along it
- Test summary: Fluorimetric titration of fluorophore conjugates
- Assay conditions: JPW4039 conjugate, peristeric site
Property name: Kd (µM)
Please reply with the bare figure in µM and do not write the unit itself.

The reported value for CC(C)C[C@H](NC(=O)CN)C(=O)O [Gly-Leu, Gly-Leu dipeptide] in terms of Kd is 0.91
